Experiment: in vitro
Details: rat, gh3-tre-luc cells, AC50 (uM) modified / 1000, Tox21_110001=Tox21_300594; viability, 1 nM T3 present, 24 h
observation_type: CC50 at 24 h (µM)

> print(dat)
                                   compound  observation.type  reported.result
1  CCOC(=O)C(O)(c1ccc(Cl)cc1)c1ccc(Cl)cc1 [Chlorobenzilate]      CC50 at 24 h             54.6

---

Assay: in vitro
Settings: rat, gh3-tre-luc cells, AC50 (uM) modified / 1000
Where a name gives a salt, the structure may show the parent alone.
observation_type: CC50 at 24 h

> print(dat)
                                    molecule  reported.result
 1                           Cc1cc(C)cc(N)c1          > 90 µM
 2                               CCC/C=C/C=O          > 90 µM
 3           O=C1O[C@H]([C@@H](O)CO)C(O)=C1O          > 90 µM
 4                             CCCCCCCCCCCCI          > 90 µM
 5  CCOC(=O)c1ccccc1C(=O)OCC [Diethyl phthalate]          > 90 µM
 6      C=COCCCCO [4-(Ethenyloxy)butan-1-ol]          > 90 µM
 7                         CCOC(=O)C=CC(=O)O          > 90 µM
 8               Oc1ccc(Cl)cc1Sc1cc(Cl)ccc1O          8.49 µM
 9  Nc1ccc(S(=O)(=O)NC(=O)c2ccccc2)cc1 [Sulfabenzamide]          > 20 µM
10              O=C(Oc1cccc2cccnc12)c1ccccc1            12 µM
11                Cn1c(=O)c2[nH]cnc2n(C)c1=O          > 90 µM
12            CC(O)CN(C)C (centres unmarked)          > 50 µM
13                    c1ccc(OCCOc2ccccc2)cc1          > 90 µM
14  CN1C(=O)c2ccc([N+](=O)[O-])cc2C1=O [N-Methyl-4-nitrophthalimide]          > 90 µM
15  CCCCOC(=O)C(=O)OCCCC [Dibutyl ethanedioate]          > 90 µM
16  N=C(N)NCC1COc2ccccc2O1 (centres unmarked)          > 50 µM
17  CN(CC(=O)N1CCOCC1)Cc1c(Cl)cccc1NC(=O)c1ccccc1 [Fominoben hydrochloride]          > 50 µM
18                CCCCOC(=O)COc1ccc(Cl)cc1Cl          > 90 µM
19  CN1[C@@H]2CC[C@H]1C[C@@H](OC(=O)c1cc(Cl)cc(Cl)c1)C2          35.2 µM
20  O=C1OC(=O)c2ccccc21 [Phthalic anhydride]          > 90 µM
21  CC(C)(C)C(=O)OCOC(=O)[C@@H]1N2C(=O)[C@@H](N=CN3CCCCCC3)[C@H]2SC1(C)C [Pivmecillinam hydrochloride]          > 20 µM
22                CC[C@@H](C)[C@@H](N)C(=O)O          > 50 µM
23           C(/C=C/C=C/Nc1ccccc1)=Nc1ccccc1          > 90 µM
24  C[N+](C)(C)CC[N+]1(C)Cc2c(Cl)c(Cl)c(Cl)c(Cl)c2C1 [Chlorisondamine chloride]          > 50 µM
25                     Cc1cc(O)c(Cl)c(C)c1Cl          56.9 µM
26                     c1ccc(CNCc2ccccc2)cc1          > 90 µM
27  COC(=O)[C@@H]1[C@H]2C[C@H]3c4[nH]c5ccccc5c4CCN3C[C@@H]2CC[C@@H]1O          > 50 µM
28  Cc1nc([N+](=O)[O-])cn1-c1ccc([N+](=O)[O-])cc1          > 50 µM
29  CN(C)CCCN1c2ccccc2CCc2ccc(Cl)cc21 [Clomipramine hydrochloride]          7.67 µM
30  COc1cc(C(=O)NCc2ccc(OCCN(C)C)cc2)cc(OC)c1OC [Trimethobenzamide hydrochloride]          > 20 µM
31       CCC(C)c1nccnc1OC (centres unmarked)          > 90 µM
32     NCCO [2-Hydroxyethylammonium formate]          > 90 µM
33  O=C(O)CC(C(=O)O)S(=O)(=O)O (centres unmarked)          > 90 µM
34                              C/C=C(\C)C=O          > 90 µM
35  Clc1ccc(C(Cl)(Cl)Cl)cc1 [4-Chlorobenzotrichloride]          > 90 µM
36  Cc1cccc(C)c1NC(=O)CN1CCN(CCCC(c2ccc(F)cc2)c2ccc(F)cc2)CC1          11.6 µM
37                             CCC(CC)C(=O)O          > 90 µM
38    C1=CCC(c2ccccc2)CC1 (centres unmarked)          > 90 µM
39                             CC=C(C)C(C)=O          > 90 µM
40                    Nc1nc(N)c(-c2ccccc2)s1          > 50 µM
41  N[C@@H](Cc1ccc(Oc2cc(I)c(O)c(I)c2)c(I)c1)C(=O)O          > 50 µM
